The values you see were collected from paper PMC10488051.

- measured-on: SARS-CoV-2 M^pro (Severe acute respiratory syndrome coronavirus 2)
- assay-procedure: biochemical
- Assay type: biochemical
Would you mind telling me the reported Kd of each entry?

Use these answered entries as a reference point.
CCOC(=O)c1sc(N(CCC(=O)O)c2cccc3ccccc23)nc1C [Compound 20]: > 200 µM
Cc1nc(N(CCC(=O)O)c2cccc3ccccc23)sc1C(=O)/C=C/c1ccc(Cl)cc1 [Compound 21b]: 17 µM
O=C(O)CCN(C1=NC(=O)C(=Cc2cccs2)S1)c1cccc2ccccc12 [Compound 16]: > 200 µM

Moving on to another compound below.
Task: Supply reported Kd belonging to this compound: N#Cc1ccc(-c2csc(N(CCC(=O)O)c3cccc4ccccc34)n2)cc1 [Compound 6e]
Output: > 200 µM

====

Would you mind telling me the reported Kd of each entry?
- measured-on: SARS-CoV-2 M^pro (Severe acute respiratory syndrome coronavirus 2, UniProt P0DTD1)
- assay-procedure: biochemical
- Assay type: biochemical

O=C(O)CCN(C1=NC(=O)C(=Cc2ccc(Br)cc2)S1)c1cccc2ccccc12 [Compound 13a]: 6.5 µM
Cc1nc(N(CCC(=O)O)c2cccc3ccccc23)sc1C(=O)/C=C/c1cccc2ccccc12 [Compound 22]: 10 µM
Cc1nc(N(CCC(=O)O)c2cccc3ccccc23)sc1C(=O)/C=C/c1ccccc1 [Compound 21a]: > 200 µM
Cc1csc(N(CCC(=O)O)c2cccc3ccccc23)n1 [Compound 4]: > 200 µM
O=C(O)CCN(c1nc(CO)cs1)c1cccc2ccccc12 [Compound 10]: > 200 µM
O=C(O)CCN(c1nc(-c2ccc(Br)cc2)cs1)c1cccc2ccccc12 [Compound 6a]: > 200 µM

Each compound below has a recorded value; state its Kd.
1. O=C(O)CCN(c1nccs1)c1cccc2ccccc12 [Compound 3]
2. Cc1ccc(N(CCC(=O)O)c2nc(C)c(C(=O)C=Cc3ccc(F)cc3)s2)cc1 [Compound 25c]
3. Cc1nc(N(CCC(=O)O)c2cccc3ccccc23)sc1C(=O)/C=C/c1ccc(F)cc1 [Compound 21c]

Output:
1. 25 µM
2. > 200 µM
3. > 200 µM

====

- measured-on: SARS-CoV-2 PL^pro (Severe acute respiratory syndrome coronavirus 2)
- assay-procedure: PL^pro enzymatic inhibition assay (FRET-based, Z-RLRGG-AMC substrate)
- Format: biochemical
- experimental-conditions: Table 1 thiazole series; enzymatic inhibition assay, 25 °C, pH 7.5; uncertainty approx. 1.8-fold of Kd
So basically: is Kd under 70 µM? Then Yes. Not under? Then No.

Consider the worked cases shown below.
O=C(O)CCN(c1nc(-c2ccc3ccccc3c2)cs1)c1cccc2ccccc12: Yes
Cc1ccc(N(CCC(=O)O)c2nc(C)c(C(=O)C=Cc3ccccc3)s2)cc1 [Compound 25a]: No
Cc1nc(N(CCC(=O)O)c2cccc3ccccc23)sc1C(=O)/C=C/c1ccccc1 [Compound 21a]: No
O=C(O)CCN(C1=NC(=O)C(=Cc2ccc(O)cc2O)S1)c1cccc2ccccc12: Yes

// next entry
Task: Say whether its Kd is strictly beneath 70 µM. Entry: "CCOC(=O)Cc1csc(N(CCC(=O)O)c2cccc3ccccc23)n1"
Output: No

====

Would you mind telling me the reported Kd of each entry?
- measured-on: SARS-CoV-2 M^pro (Severe acute respiratory syndrome coronavirus 2, UniProt P0DTD1)
- assay-procedure: biochemical
- Format: biochemical
- experimental-conditions: Table 2 disulfide compounds; enzymatic inhibition assay, 25 °C, pH 7.5

Each molecule below has a recorded value; state its Kd.
1. Cc1ccc(C)n1NC(=O)CCNc1ccccc1SSc1ccccc1NCCC(=O)Nn1c(C)ccc1C [Compound 36]
2. O=C(CNc1ccccc1SSc1ccccc1NCC(=O)c1ccccc1)c1ccccc1 [Compound 38]
3. O=C1CCN(c2ccccc2SSc2ccccc2N2CCC(=O)NC2=O)C(=O)N1 [Compound 37]
4. NNC(=O)CCNc1ccccc1SSc1ccccc1NCCC(=O)NN [Compound 34]

Output:
1. > 200 µM
2. > 200 µM
3. > 200 µM
4. 3.5 µM

Each molecule below has a recorded value; state its Kd.
1. O=C(O)CCNc1ccccc1SSc1ccccc1NCCC(=O)O [Compound 33]
2. Nc1ccccc1SSc1ccccc1N [Compound 32]

Output:
["> 200 µM", "2.8 µM"]

Task: Report Kd under test system SARS-CoV-2 M^pro (Severe acute respiratory syndrome coronavirus 2, UniProt P0DTD1) for O=C(CCNc1ccccc1SSc1ccccc1NCCC(=O)N/N=C/c1cccs1)N/N=C/c1cccs1 [Compound 35] .
Output: > 200 µM
